Form field: protein stability index (one value per entry).
- TEST_METHOD_NOTES: protein stability index of a GFP-peptide fusion (yeast GPS) (PSI 1-4); higher = more stable; sorted into four equal gates, so the index is relative within each strain
- EXPERIMENTAL_CONTEXT: san1∆
Hey, just send me the number, nothing else.

Answered examples (5):
SEQUENCE_CONTENT	protein stability index
EEAKEEVTEEQAEATEW [RPS0A]	3.02
DNVNSTTGSIFEKDLMA [BRN1]	3.07
KIIPKDISATQLPKQLW [ITC1]	2.45
KLHVNWNLNATKPNVLN [SIN4]	2.85
GRHVATCSSDQHIKVFK [YGL100W/SEH1]	2.57

Q: Value lookup for protein stability index; key = PEESKPINLQNGEEDEV [YLR335W/NUP2]
A: 3.1

Q: Value lookup for protein stability index; key = YIDYSSKRYIPSVNDFV [RRP40]
A: 2.42

Q: Value lookup for protein stability index; key = QLIDQFEWDISNSDNCP [SNF5]
A: 3.21

Q: Value lookup for protein stability index; key = TILSSKLSNIWMQRQLI [SRB2]
A: 2.76

Q: Value lookup for protein stability index; key = LGQLYVTMGAKDKLREF [RPN6]
A: 3.08

Q: Value lookup for protein stability index; key = PALIRPGRIDRKILFEN [RPT2]
A: 2.12

###

- TEST_METHOD_NOTES: protein stability index of a GFP-peptide fusion (yeast GPS) (PSI 1-4); higher = more stable; sorted into four equal gates, so the index is relative within each strain
- EXPERIMENTAL_CONTEXT: doa10∆
We use 3 as the dividing line for protein stability index: on or above the line is 1.0, below is 0.0.

Please review the following examples before continuing.
SEQUENCE_CONTENT	CATEGORY_LABEL
PMEVMGLMLGEFVDDYT [RPN11]	1.0
REKYNMKGPAALWDVQF [ARP9]	1.0
VAKVDEEGRAIPGEYIT [RPS21B]	0.0

Q: Quick check: does LQQELATTQDQVASIIE [NUT2] have protein stability index greater than or equal to 3?
A: 0.0

Q: Quick check: does DADTEDPHSASLINSHL [RPC82] have protein stability index greater than or equal to 3?
A: 0.0

Q: Quick check: does EPIKLEPVKEYTFKTSM [YMR129W/POM152] have protein stability index greater than or equal to 3?
A: 0.0

Q: Quick check: does RVRTDDSVLLNRGNKKR [YML031W/NDC1] have protein stability index greater than or equal to 3?
A: 1.0

###

- TEST_METHOD_NOTES: protein stability index of a GFP-peptide fusion (yeast GPS) (PSI 1-4); higher = more stable; sorted into four equal gates, so the index is relative within each strain
- EXPERIMENTAL_CONTEXT: san1∆
EXPERIMENTAL_ENDPOINT: protein stability index
Hey, just send me the number, nothing else.

Q: Value lookup for protein stability index; key = KGYLQRGDDGESYAYLA [CDC53]
A: 3.21

Q: Value lookup for protein stability index; key = FLRPTYPDLCSIYDKWT [RPN1]
A: 2.35

###

- TEST_METHOD_NOTES: protein stability index of a GFP-peptide fusion (yeast GPS) (PSI 1-4); higher = more stable; sorted into four equal gates, so the index is relative within each strain
- EXPERIMENTAL_CONTEXT: doa10∆
EXPERIMENTAL_ENDPOINT: protein stability index
Hey, just send me the number, nothing else.

SEQUENCE_CONTENT	protein stability index
IIHFHSHPEKRMIPPRM [SSN3]	3.09
GVLLRDAHGVTQARVIT [RPS13]	2.4
LINIDTSIANAFRRIMI [RPC40]	2.28
TNKLLFKRVSQTFEAKL [NUT1]	1.78
TSQKMKKMVYVLDSMTK [SRP54]	2.79
VFQLPTRLPAFERPAVK [RPC53]	3.01
SPVRSDSADVPAFSNSN [YMR153W/NUP53]	3.06
SDEEEVTEMSNNANVLG [BRR2]	3.03

Q: Value lookup for protein stability index; key = DKPLLKAGRAFHKYRLK [RPL2A]
A: 2.96

Q: Value lookup for protein stability index; key = KKKTTLEDFENFKGLAK [YIL149C/MLP2]
A: 2.82

Q: Value lookup for protein stability index; key = NILWRIADKTTYDKETI [SIR4]
A: 3.2
